System: Green foxtail
Assay Name: Preemergence herbicidal activity, green foxtail
Format: in vivo
Measurement Context: Setaria viridis, pre-emergence, 0.3 kg/ha, after 17-21 days, read-out: Preemergence herbicidal activity (% control), Green foxtail
Measured Parameter: activity at 300 g/ha (%)
Kindly provide the numeric value in % only, without the unit symbol.

compound COc1ccccc1COc1ccc(-n2c(=O)cc(C(F)(F)F)n(C)c2=O)cc1 [Compound 40] , activity at 300 g/ha observed: 100

compound Cn1c(C(F)(F)F)cc(=O)n(-c2ccc(OCc3ccc(Cl)cc3)cc2F)c1=O [Compound 10] , activity at 300 g/ha observed: 100

compound Cn1c(C(F)(F)F)cc(=O)n(-c2ccc(OCc3c(Cl)cccc3Cl)cc2)c1=O [Compound 7] , activity at 300 g/ha observed: 0

compound COc1cccc(COc2ccc(-n3c(=O)cc(C(F)(F)F)n(C)c3=O)cc2)c1 [Compound 8] , activity at 300 g/ha observed: 100

###

Tested on: Morningglory
Assay Name: Preemergence herbicidal activity, morningglory
Assay type: in vivo, Ipomea lacunosa or Ipomea hederacea
Measurement Context: Ipomoea, pre-emergence, 0.3 kg/ha, after 17-21 days, read-out: Preemergence herbicidal activity (% control), Morningglory
Kindly state activity at 300 g/ha for each of the entries shown.
Kindly provide the numeric value in % only, without the unit symbol.

compound Cc1cc(OCc2ccccc2)ccc1-n1c(=O)cc(C(F)(F)F)n(C)c1=O , activity at 300 g/ha observed: 10

compound Cn1c(C(F)(F)F)cc(=O)n(-c2ccc(OCc3ccccc3)cc2F)c1=O , activity at 300 g/ha observed: 100

compound Cn1c(C(F)(F)F)cc(=O)n(-c2ccc(OCc3ccc(F)cc3)cc2F)c1=O , activity at 300 g/ha observed: 100

compound Cn1c(C(F)(F)F)cc(=O)n(-c2ccc(OCc3ccc(Cl)cc3)cc2F)c1=O , activity at 300 g/ha observed: 100

compound Cn1c(C(F)(F)F)cc(=O)n(-c2ccc(OCc3ccccc3Cl)cc2)c1=O , activity at 300 g/ha observed: 60

compound Cn1c(C(F)(F)F)cc(=O)n(-c2ccc(OCc3ccc(C(F)(F)F)cc3)cc2)c1=O , activity at 300 g/ha observed: 90

compound Cn1c(C(F)(F)F)cc(=O)n(-c2ccc(OCc3cccc(Cl)c3)cc2)c1=O , activity at 300 g/ha observed: 10

compound Cn1c(C(F)(F)F)cc(=O)n(-c2ccc(OCc3ccc(Cl)c(Cl)c3)cc2)c1=O , activity at 300 g/ha observed: 80

###

System: Blackgrass
Assay Name: Postemergence herbicidal activity, blackgrass
Format: in vivo, Aloepecurus myosuroides
Measurement Context: Alopecurus myosuroides, post-emergence, 0.3 kg/ha, after 17-21 days, read-out: Postemergence herbicidal activity (% control), Blackgrass
Measured Parameter: activity at 300 g/ha (%)
Kindly provide the numeric value in % only, without the unit symbol.

molecule Cn1c(C(F)(F)F)cc(=O)n(-c2ccc(OCc3c(Cl)cccc3Cl)cc2)c1=O , activity at 300 g/ha observed: 0

molecule Cn1c(C(F)(F)F)cc(=O)n(-c2ccc(OCc3ccc(F)cc3)cc2)c1=O , activity at 300 g/ha observed: 30

molecule Cn1c(C(F)(F)F)cc(=O)n(-c2ccc(OCc3ccc(Cl)cc3)cc2F)c1=O , activity at 300 g/ha observed: 40

molecule Cn1c(C(F)(F)F)cc(=O)n(-c2ccc(OCc3cc(Cl)cc(Cl)c3)cc2)c1=O , activity at 300 g/ha observed: 0

###

System: Blackgrass
Assay Name: Postemergence herbicidal activity, blackgrass
Assay type: in vivo, Aloepecurus myosuroides
Measurement Context: Alopecurus myosuroides, post-emergence, 0.3 kg/ha, after 17-21 days, read-out: Postemergence herbicidal activity (% control), Blackgrass
Measured Parameter: activity at 300 g/ha (%)
Kindly provide the numeric value in % only, without the unit symbol.

compound Cn1c(C(F)(F)F)cc(=O)n(-c2ccc(OCc3ccc(F)cc3)cc2F)c1=O , activity at 300 g/ha observed: 0

compound Cn1c(C(F)(F)F)cc(=O)n(-c2ccc(OCc3ccc(Cl)cc3)cc2)c1=O , activity at 300 g/ha observed: 0

compound COc1ccccc1COc1ccc(-n2c(=O)cc(C(F)(F)F)n(C)c2=O)cc1 , activity at 300 g/ha observed: 10

compound Cn1c(C(F)(F)F)cc(=O)n(-c2ccc(OCc3cccc(Cl)c3Cl)cc2)c1=O , activity at 300 g/ha observed: 0

compound Cn1c(C(F)(F)F)cc(=O)n(-c2ccc(OCc3ccccc3)cc2)c1=O , activity at 300 g/ha observed: 10

compound Cn1c(C(F)(F)F)cc(=O)n(-c2ccc(OCc3ccc(Cl)c(Cl)c3)cc2)c1=O , activity at 300 g/ha observed: 0

compound Cn1c(C(F)(F)F)cc(=O)n(-c2ccc(OCc3ccc(Cl)cc3Cl)cc2)c1=O , activity at 300 g/ha observed: 0

compound Cn1c(C(F)(F)F)cc(=O)n(-c2ccc(OCc3ccccc3)cc2F)c1=O , activity at 300 g/ha observed: 0

###

System: Morningglory
Assay Name: Postemergence herbicidal activity, morningglory
Type: in vivo, Ipomea lacunosa or Ipomea hederacea
Measurement Context: Ipomoea, post-emergence, 0.3 kg/ha, after 17-21 days, read-out: Postemergence herbicidal activity (% control), Morningglory
Kindly state activity at 300 g/ha for each of the entries shown.
Kindly provide the numeric value in % only, without the unit symbol.

compound COc1ccccc1COc1ccc(-n2c(=O)cc(C(F)(F)F)n(C)c2=O)cc1 [Compound 40] , activity at 300 g/ha observed: 90

compound COc1cccc(COc2ccc(-n3c(=O)cc(C(F)(F)F)n(C)c3=O)cc2)c1 [Compound 8] , activity at 300 g/ha observed: 100

compound Cn1c(C(F)(F)F)cc(=O)n(-c2ccc(OCc3ccc(F)cc3)cc2F)c1=O [Compound 11] , activity at 300 g/ha observed: 100

compound Cc1cc(OCc2ccccc2)ccc1-n1c(=O)cc(C(F)(F)F)n(C)c1=O [Compound 12] , activity at 300 g/ha observed: 20

compound Cn1c(C(F)(F)F)cc(=O)n(-c2ccc(OCc3ccc(Cl)cc3)cc2)c1=O [Compound 4] , activity at 300 g/ha observed: 100

compound Cn1c(C(F)(F)F)cc(=O)n(-c2ccc(OCc3ccccc3)cc2)c1=O [Compound 1] , activity at 300 g/ha observed: 95

compound Cn1c(C(F)(F)F)cc(=O)n(-c2ccc(OCc3cccc(Cl)c3)cc2)c1=O [Compound 3] , activity at 300 g/ha observed: 90

compound Cn1c(C(F)(F)F)cc(=O)n(-c2ccc(OCc3c(Cl)cccc3Cl)cc2)c1=O [Compound 7] , activity at 300 g/ha observed: 10

compound Cn1c(C(F)(F)F)cc(=O)n(-c2ccc(OCc3ccc(Cl)cc3)cc2F)c1=O [Compound 10] , activity at 300 g/ha observed: 100

compound Cn1c(C(F)(F)F)cc(=O)n(-c2ccc(OCc3ccc(Cl)cc3Cl)cc2)c1=O [Compound 6] , activity at 300 g/ha observed: 50

compound Cn1c(C(F)(F)F)cc(=O)n(-c2ccc(OCc3ccc(Cl)c(Cl)c3)cc2)c1=O [Compound 41] , activity at 300 g/ha observed: 100

compound Cn1c(C(F)(F)F)cc(=O)n(-c2ccc(OCc3ccc(C(F)(F)F)cc3)cc2)c1=O [Compound 22] , activity at 300 g/ha observed: 95

compound Cc1cc(OCc2ccc(Cl)cc2)ccc1-n1c(=O)cc(C(F)(F)F)n(C)c1=O [Compound 13] , activity at 300 g/ha observed: 100

compound Cn1c(C(F)(F)F)cc(=O)n(-c2ccc(OCc3ccc(F)cc3)cc2)c1=O [Compound 5] , activity at 300 g/ha observed: 100

compound Cn1c(C(F)(F)F)cc(=O)n(-c2ccc(OCc3cc(Cl)cc(Cl)c3)cc2)c1=O [Compound 43] , activity at 300 g/ha observed: 10

compound COc1ccc(COc2ccc(-n3c(=O)cc(C(F)(F)F)n(C)c3=O)cc2)cc1 [Compound 44] , activity at 300 g/ha observed: 90

compound Cn1c(C(F)(F)F)cc(=O)n(-c2ccc(OCc3ccccc3Cl)cc2)c1=O [Compound 2] , activity at 300 g/ha observed: 60

compound Cn1c(C(F)(F)F)cc(=O)n(-c2ccc(OCc3ccccc3)cc2F)c1=O [Compound 9] , activity at 300 g/ha observed: 100

###

Test system: Green foxtail
Assay Name: Preemergence herbicidal activity, green foxtail
Format: in vivo
Measurement Context: Setaria viridis, pre-emergence, 0.3 kg/ha, after 17-21 days, read-out: Preemergence herbicidal activity (% control), Green foxtail
Kindly state activity at 300 g/ha for each of the entries shown.
Kindly provide the numeric value in % only, without the unit symbol.

molecule Cn1c(C(F)(F)F)cc(=O)n(-c2ccc(OCc3ccc(Cl)cc3)cc2)c1=O [Compound 4] , activity at 300 g/ha observed: 100

molecule Cn1c(C(F)(F)F)cc(=O)n(-c2ccc(OCc3ccccc3)cc2)c1=O [Compound 1] , activity at 300 g/ha observed: 100

molecule Cn1c(C(F)(F)F)cc(=O)n(-c2ccc(OCc3ccc(Cl)cc3Cl)cc2)c1=O [Compound 6] , activity at 300 g/ha observed: 100

molecule Cn1c(C(F)(F)F)cc(=O)n(-c2ccc(OCc3ccc(F)cc3)cc2)c1=O [Compound 5] , activity at 300 g/ha observed: 100

molecule Cc1cc(OCc2ccc(Cl)cc2)ccc1-n1c(=O)cc(C(F)(F)F)n(C)c1=O [Compound 13] , activity at 300 g/ha observed: 100

molecule Cn1c(C(F)(F)F)cc(=O)n(-c2ccc(OCc3ccc(F)cc3)cc2F)c1=O [Compound 11] , activity at 300 g/ha observed: 100

molecule Cn1c(C(F)(F)F)cc(=O)n(-c2ccc(OCc3cccc(Cl)c3)cc2)c1=O [Compound 3] , activity at 300 g/ha observed: 95

molecule Cn1c(C(F)(F)F)cc(=O)n(-c2ccc(OCc3ccc(C(F)(F)F)cc3)cc2)c1=O [Compound 22] , activity at 300 g/ha observed: 100

molecule COc1ccc(COc2ccc(-n3c(=O)cc(C(F)(F)F)n(C)c3=O)cc2)cc1 [Compound 44] , activity at 300 g/ha observed: 60

molecule Cc1cc(OCc2ccccc2)ccc1-n1c(=O)cc(C(F)(F)F)n(C)c1=O [Compound 12] , activity at 300 g/ha observed: 80

molecule Cn1c(C(F)(F)F)cc(=O)n(-c2ccc(OCc3cc(Cl)cc(Cl)c3)cc2)c1=O [Compound 43] , activity at 300 g/ha observed: 0

molecule Cn1c(C(F)(F)F)cc(=O)n(-c2ccc(OCc3ccc(Cl)c(Cl)c3)cc2)c1=O [Compound 41] , activity at 300 g/ha observed: 95

molecule Cn1c(C(F)(F)F)cc(=O)n(-c2ccc(OCc3ccccc3)cc2F)c1=O [Compound 9] , activity at 300 g/ha observed: 100

molecule Cn1c(C(F)(F)F)cc(=O)n(-c2ccc(OCc3cccc(Cl)c3Cl)cc2)c1=O [Compound 42] , activity at 300 g/ha observed: 60

molecule Cn1c(C(F)(F)F)cc(=O)n(-c2ccc(OCc3ccccc3Cl)cc2)c1=O [Compound 2] , activity at 300 g/ha observed: 100
